Tested on: ascites form of mouse Ehrlich carcinoma cells
Experiment: Cytotoxic activity (MTT) against the ascites form of mouse Ehrlich carcinoma cells
Type: cell-based
Conditions: ascites form of mouse Ehrlich carcinoma cells, MTT, incubated over night
measured-metric: IC50
Enter the number, and then the unit.

Entry C=C(C)CCCC1(C)OC(=O)C23CCC4C(=CCC5C(C)(C)C(OC6OCC(OS(=O)(=O)[O-])C(O)C6OC6OC(C)C(OC7OC(CO)C(O)C(OC8OC(CO)C(O)C(OC)C8O)C7O)C(O)C6OC6OCC(O)C(O)C6O)CCC45C)C2(C)CC(=O)C13.[Na+] (stereo not shown) [Cucumarioside A2-2, reference compound] , ascites form of mouse Ehrlich carcinoma cells data, IC50 value: 1.39 µM

---

I'd be grateful if you could share measured IC50 for these entries.
Tested on: human colorectal adenocarcinoma DLD-1 cells
Assay: Cytotoxicity against DLD-1 cells (MTS assay)
Assay type: cell-based
Conditions: Homo sapiens, DLD-1, read-out: IC50 (50% reduction in cell viability), DLD-1 cells, 24 h, 0–100 µM
Respond with the bare value in µM.

# IC50 measured on human colorectal adenocarcinoma DLD-1 cells for item COC1C(O)C(COS(=O)(=O)O)OC(OC2COC(OC3C(C)OC(OC4C(OC5CCC6(C)C7CCC89C(=O)OC(CC8(C)C7=CCC6C5(C)C)C9C(C)(O)CCC=C(C)C)OCC(OS(=O)(=O)O)C4O)C(O)C3O)C(O)C2O)C1O (stereo not drawn) [Compound 9] = 33.9

human colorectal adenocarcinoma DLD-1 cells IC50 of COC1C(O)C(COS(=O)(=O)O)OC(OC2COC(OC3C(C)OC(OC4C(OC5CCC6(C)C7CCC89C(=O)OC(CC8(C)C7=CCC6C5(C)C)C9C(C)(O)CC=CC(C)(C)O)OCC(OS(=O)(=O)O)C4O)C(O)C3O)C(O)C2O)C1O (stereo not drawn) [Compound 7] is 32.9

Reading of IC50 for C=C(C)C(O)CCC(C)(O)C1C2CC3(C)C4=CCC5C(C)(C)C(OC6OCC(OS(=O)(=O)O)C(O)C6OC6OC(C)C(OC7OCC(OC8OC(COS(=O)(=O)O)C(O)C(OC)C8O)C(O)C7O)C(O)C6O)CCC5(C)C4CCC13C(=O)O2 (stereo not drawn) [Compound 8] with human colorectal adenocarcinoma DLD-1 cells: 37.1

Lab note: molecule C=C(C)CCCC(C)(O)C1C2CC3(C)C4=CCC5C(C)(C)C(OC6OCC(OS(=O)(=O)O)C(O)C6OC6OC(C)C(O)C(O)C6O)CCC5(C)C4CCC13C(=O)O2 (stereo not drawn) [Compound 3] tested on human colorectal adenocarcinoma DLD-1 cells; recorded IC50 was 30.3

---

Assay: Cytotoxic activity (MTT) against mouse spleenocytes
Assay type: cell-based
Details: CD-1, mouse
Assignment: determine reported IC50 for the given molecules.
Give the number; µM is assumed, so skip it.

Entry under test: C=C(C)C(O)CCC(C)(O)C1C2CC3(C)C4=CCC5C(C)(C)C(OC6OCC(OS(=O)(=O)O)C(O)C6OC6OC(C)C(O)C(O)C6O)CCC5(C)C4CCC13C(=O)O2 (stereo not drawn) . Its IC50 was 94.2

// IC50 lookup, molecule = COC1C(O)C(COS(=O)(=O)O)OC(OC2COC(OC3C(C)OC(OC4C(OC5CCC6(C)C7CCC89C(=O)OC(CC8(C)C7=CCC6C5(C)C)C9C(C)(O)CC=CC(C)(C)O)OCC(OS(=O)(=O)O)C4O)C(O)C3O)C(O)C2O)C1O (stereo not drawn) , result: 8.97

The measured IC50 associated with C=C(C)C(O)CCC(C)(O)C1C2CC3(C)C4=CCC5C(C)(C)C(OC6OCC(OS(=O)(=O)O)C(O)C6OC6OC(C)C(OC7OCC(OC8OC(COS(=O)(=O)O)C(O)C(OC)C8O)C(O)C7O)C(O)C6O)CCC5(C)C4CCC13C(=O)O2 (stereo not drawn) reads 17.3

The reported IC50 of the molecule CC(C)=CCCC(C)(O)C1C2CC3(C)C4=CCC5C(C)(C)C(OC6OCC(OS(=O)(=O)O)C(O)C6OC6OC(C)C(O)C(O)C6O)CCC5(C)C4CCC13C(=O)O2 (stereo not drawn) was 37.6

Notebook: COC1C(O)C(COS(=O)(=O)O)OC(OC2COC(OC3C(C)OC(OC4C(OC5CCC6(C)C7CCC89C(=O)OC(CC8(C)C7=CCC6C5(C)C)C9C(C)(O)CCC=C(C)C)OCC(OS(=O)(=O)O)C4O)C(O)C3O)C(O)C2O)C1O (stereo not drawn) , IC50 read as 12.2

Lookup result for C=C(C)CCCC(C)(O)C1C2CC3(C)C4=CCC5C(C)(C)C(OC6OCC(OS(=O)(=O)O)C(O)C6OC6OC(C)C(O)C(O)C6O)CCC5(C)C4CCC13C(=O)O2 (stereo not drawn) ; measured IC50: 19.2

---

Experiment: Cytotoxic activity (MTT) against the ascites form of mouse Ehrlich carcinoma cells
Type: cell-based
Conditions: mouse
measured-metric: IC50 (µM)
Numbers only; they are read as µM.

// recorded IC50 for C=C(C)CCCC(C)(O)C1C2CC3(C)C4=CCC5C(C)(C)C(OC6OCC(OS(=O)(=O)O)C(O)C6OC6OC(C)C(O)C(O)C6O)CCC5(C)C4CCC13C(=O)O2 (stereo not drawn) : 18.9

Notebook: C=C(C)C(O)CCC(C)(O)C1C2CC3(C)C4=CCC5C(C)(C)C(OC6OCC(OS(=O)(=O)O)C(O)C6OC6OC(C)C(OC7OCC(OC8OC(COS(=O)(=O)O)C(O)C(OC)C8O)C(O)C7O)C(O)C6O)CCC5(C)C4CCC13C(=O)O2 (stereo not drawn) , IC50 read as 37.5

Quick note, IC50 for COC1C(O)C(COS(=O)(=O)O)OC(OC2COC(OC3C(C)OC(OC4C(OC5CCC6(C)C7CCC89C(=O)OC(CC8(C)C7=CCC6C5(C)C)C9C(C)(O)CC=CC(C)(C)O)OCC(OS(=O)(=O)O)C4O)C(O)C3O)C(O)C2O)C1O (stereo not drawn) landed at 18.7

Reported IC50 for COC1C(O)C(COS(=O)(=O)O)OC(OC2COC(OC3C(C)OC(OC4C(OC5CCC6(C)C7CCC89C(=O)OC(CC8(C)C7=CCC6C5(C)C)C9C(C)(O)CCC=C(C)C)OCC(OS(=O)(=O)O)C4O)C(O)C3O)C(O)C2O)C1O (stereo not drawn) was 35.1

Item: CC(C)=CCCC(C)(O)C1C2CC3(C)C4=CCC5C(C)(C)C(OC6OCC(OS(=O)(=O)O)C(O)C6OC6OC(C)C(O)C(O)C6O)CCC5(C)C4CCC13C(=O)O2 (stereo not drawn) | IC50: 28.4

---

Assay: Cytotoxic activity (MTT) against mouse spleenocytes
Format: cell-based
Conditions: CD-1, mouse
pIC50: −log10 of the molar value.
measured-metric: pIC50

Lookup result for CC1OC(OC2C(OC3CCC4(C)C5CCC67C(=O)OC(CC6(C)C5=CCC4C3(C)C)C7C3(C)CCC(C(C)(C)O)O3)OCC(OS(=O)(=O)O)C2O)C(O)C(O)C1O (stereo not drawn) [Compound 1] ; measured pIC50: < 4.00

Reported pIC50 of C=C(C)C(O)CCC(C)(O)C1C2CC3(C)C4=CCC5C(C)(C)C(OC6OCC(OS(=O)(=O)O)C(O)C6OC6OC(C)C(OC7OCC(OC8OC(CO)C(O)C(OC)C8O)C(O)C7O)C(O)C6O)CCC5(C)C4CCC13C(=O)O2 (stereo not drawn) [Compound 6] : < 4.00

Recorded pIC50 (molecule COC1C(O)C(CO)OC(OC2COC(OC3C(C)OC(OC4C(OC5CCC6(C)C7CCC89C(=O)OC(CC8(C)C7=CCC6C5(C)C)C9C(C)(O)CC=CC(C)(C)O)OCC(OS(=O)(=O)O)C4O)C(O)C3O)C(O)C2O)C1O (stereo not drawn) [Compound 5] ): < 4.00

This collection of values is drawn from paper PMC5577610.
